# Assay system: p38α MAP kinase (Homo sapiens, UniProt Q16539)
# Sequence (Q16539 whole entry): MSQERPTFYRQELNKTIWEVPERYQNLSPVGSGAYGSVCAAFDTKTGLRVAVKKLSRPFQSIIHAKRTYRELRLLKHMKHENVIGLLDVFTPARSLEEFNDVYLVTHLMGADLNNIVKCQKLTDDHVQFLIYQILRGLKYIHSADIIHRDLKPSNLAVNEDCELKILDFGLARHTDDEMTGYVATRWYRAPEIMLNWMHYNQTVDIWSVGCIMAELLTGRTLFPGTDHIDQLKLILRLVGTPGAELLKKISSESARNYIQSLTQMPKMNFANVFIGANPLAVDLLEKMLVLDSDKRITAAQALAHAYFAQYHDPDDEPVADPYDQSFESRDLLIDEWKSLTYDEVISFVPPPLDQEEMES
# Assay comment: Assay to determine the inhibition of p38α MAP kinase (phosphorylation of ATF-2, IC50-values)
# Test settings: ATF-2 coated microtiter plates, 10 ng activated p38α, 100 μM ATP, 1 h at 37° C.; read-out: IC50, inhibition of the phosphorylation of ATF-2 by p38a MAP kinase
pIC50: −log10 of the molar value.
Property: pIC50

Recorded pIC50, per entry:
* COCCn1c([S+](C)[O-])nc(-c2ccc(F)cc2)c1-c1ccnc(NCC(C)O)c1 (stereo not drawn) | 5.00 to 6.00
* CSc1nc(-c2ccc(F)cc2)c(-c2ccnc(NC3CCC(=O)CC3)c2)n1C | 5.00 to 6.00
* COCCn1c(SC)nc(-c2ccc(F)cc2)c1-c1ccnc(NCC2CCCCC2O)c1 (stereo not drawn) | > 6.00
* CSc1nc(-c2ccc(F)cc2)c(-c2ccnc(NC3CCN(Cc4ccccc4)CC3)c2)n1C | 5.00 to 6.00
* Cn1c([S+](C)[O-])nc(-c2ccc(F)cc2)c1-c1ccnc(NC2CCC(O)CC2)c1 (stereo not drawn) | > 6.00
* COCCn1c([S+](C)[O-])nc(-c2ccc(F)cc2)c1-c1ccnc(NC(=O)C2CCOCC2)c1 (stereo not drawn) | > 6.00
* COCCn1c([S+](C)[O-])nc(-c2ccc(F)cc2)c1-c1ccnc(NC2CCCCC2O)c1 (stereo not drawn) | 5.00 to 6.00
* CCN1CCCC1CNc1cc(-c2c(-c3ccc(F)cc3)nc([S+](C)[O-])n2C)ccn1 (stereo not drawn) | < 5.00

Continue with the next compound.
Query :: Item: COCCn1c(S(C)(=O)=O)nc(-c2ccc(F)cc2)c1-c1ccnc(NC2CCCCC2O)c1 (stereo not drawn) Test system: p38α MAP kinase (Homo sapiens, UniProt Q16539) Read-out: pIC50 Value: ?
Result :: 5.00 to 6.00
